Reference for the values: ChEMBL document CHEMBL1201862

# System: TK-10
# procedure_details: NCI tumour cell line growth inhibition, 48 h
The source made the active and inactive calls. No stated cut-off is given here; in the data, active = GI50 up to about 1.1 µM and inactive = higher.

compound: Cc1ccc(C2(O)c3ccccc3C(=O)N(C)C2(O)c2ccc(C)cc2)cc1 (configuration not stated)
target_or_system: TK-10
GI50: > 100 µM (inactive)
--
compound: N=C(N)NCC(N)C(=O)O (configuration not stated)
target_or_system: TK-10
GI50: > 100 µM (inactive)
--
compound: CC1(CO)OC(n2cnc3c(N)ncnc32)C(O)C1O (configuration not stated)
target_or_system: TK-10
GI50: > 100 µM (inactive)
--
compound: COc1ccc(/N=N/C(=O)NC(CC(C)C)C(N)=O)cc1 (configuration not stated)
target_or_system: TK-10
GI50: > 31.6 µM (inactive)
--
compound: CC1(C)[C@H](C(=O)O)N2C(=O)[C@@H](NS(=O)(=O)c3ccc([N+](=O)[O-])cc3)[C@H]2S1(=O)=O
target_or_system: TK-10
GI50: > 100 µM (inactive)
--
compound: c1ccc2c(c1)OC(N1CCCC1)c1cnc(N3CCOCC3)nc1-2 (configuration not stated)
target_or_system: TK-10
GI50: 29.9 µM (inactive)
--
compound: CCNC(=S)N/N=C/c1ccccn1
target_or_system: TK-10
GI50: 25.2 µM (inactive)
--
compound: Cc1ccc(NC(=O)CCC(CC(=O)C(C)(C)C)=NNC(=O)C(=O)NN)cc1C
target_or_system: TK-10
GI50: > 100 µM (inactive)
--
compound: Cc1ccccc1NC(=O)CSc1nnc(Cc2ccccc2)o1
target_or_system: TK-10
GI50: > 100 µM (inactive)
--
compound: COc1ccc(CC2COc3cc(O)cc(O)c3C2=O)cc1O (configuration not stated)
target_or_system: TK-10
GI50: 15.4 µM (inactive)
--
compound: COc1ccc(/C=C2\NC(=S)N(/C=C3\C(=O)Oc4ccccc4C3=O)C2=O)cc1OC
target_or_system: TK-10
GI50: > 100 µM (inactive)
--
compound: CCCNC(=S)N/N=C/c1cccc(C)n1
target_or_system: TK-10
GI50: 65.8 µM (inactive)
--
compound: O=c1c2c(oc3ccccc13)-c1ccccc1OC2
target_or_system: TK-10
GI50: > 100 µM (inactive)
--
compound: Cc1ccc(/N=N/c2ccc(N(CCC#N)CCC#N)cc2C)c(Br)c1
target_or_system: TK-10
GI50: 16.7 µM (inactive)
--
compound: COc1cc(CNc2ccc3nc4n(c(=O)c3c2)CCCCC4)cc(OC)c1OC
target_or_system: TK-10
GI50: 84.7 µM (inactive)
--
compound: O=c1ccc2ccc(OP(=O)(O)O)cc2o1
target_or_system: TK-10
GI50: > 100 µM (inactive)
--
compound: O=C(CCCN1CCC2(CC1)CC(=O)N(N1CCCCCC1)C2=O)c1ccc(F)cc1
target_or_system: TK-10
GI50: > 100 µM (inactive)
--
compound: O=C1OC(=O)c2c1c(-c1ccccc1)cn2-c1ccc(Cl)cc1
target_or_system: TK-10
GI50: > 100 µM (inactive)
--
compound: Cc1ccc(S(=O)(=O)OCCOCCOCCOCCOCCOS(=O)(=O)c2ccc(C)cc2)cc1
target_or_system: TK-10
GI50: 36.7 µM (inactive)
--
compound: COC(=O)CCC(C)[C@H]1CCC2C3C(C[C@H](OC(C)=O)[C@@]21C)[C@@]1(C)CCC2(C[C@H]1C[C@H]3OC(C)=O)OOC1(CCCC1)OO2 (some centres not stated)
target_or_system: TK-10
GI50: 48.3 µM (inactive)
--
compound: CC(C)(C)c1cc(C(=O)Nc2cc(Br)c(Br)cc2S(N)(=O)=O)cc(C(C)(C)C)c1O
target_or_system: TK-10
GI50: 12.9 µM (inactive)
--
compound: COC(=O)C1=CO[C@@H](OC2OC(CO)C(O)C(O)C2O)[C@@H]2[C@H](C)[C@@H](O)[C@@H](O)[C@]12O (some centres not stated)
target_or_system: TK-10
GI50: > 100 µM (inactive)
--
compound: O=C(O)C(=C\c1ccc2c(c1)OCO2)/C(=C/c1ccc2c(c1)OCO2)C(=O)O
target_or_system: TK-10
GI50: > 100 µM (inactive)
--
compound: COC(=O)C1CCC(=O)C(Sc2ccccc2)C1 (configuration not stated)
target_or_system: TK-10
GI50: > 100 µM (inactive)
--
compound: O=C1CCC(=O)c2c1c(O)c1ccncc1c2O
target_or_system: TK-10
GI50: 18.4 µM (inactive)
--
compound: Cc1nn(C(=O)Cc2ccccc2)c2c1C(c1ccc(O)cc1O)SC(=N)N2 (configuration not stated)
target_or_system: TK-10
GI50: > 100 µM (inactive)
--
compound: COc1cc2c(cc1OC)C(=O)N(NC1=NCCN1)C2=O
target_or_system: TK-10
GI50: > 100 µM (inactive)
--
compound: COC(=O)c1cc2c3c(ccc2[nH]1)N(C(=O)c1cc2c4c(ccc2[nH]1)N(C(=O)c1cc2c5c(ccc2[nH]1)N(C(N)=O)CC5)CC4)CC3
target_or_system: TK-10
GI50: 13.1 µM (inactive)
--
compound: Cc1ccc(/C=N/Nc2ccccn2)s1
target_or_system: TK-10
GI50: > 31.6 µM (inactive)
--
compound: COc1cc(OC)c2c(C)cc(=O)oc2c1
target_or_system: TK-10
GI50: 66.4 µM (inactive)
--
compound: COC1OC2COC1(OC)C1OC(C)(C)OC21 (configuration not stated)
target_or_system: TK-10
GI50: > 100 µM (inactive)
--
compound: CCCCCCCCOC1C(O)C(O)C(O)C(O)C12CO2 (configuration not stated)
target_or_system: TK-10
GI50: > 100 µM (inactive)
